Biological target: T1, ZIKV E protein (Suriname Z1106033) (Zika virus, Suriname Z1106033, UniProt A0A0U4DG08, strain)
T1 construct: also called soluble ZIKV E protein
Assay: BLI; Octet HTX; MAb 0.1 to 0.3 μg/mL amine-coupled to AR2G biosensor; ZIKV-VLP 0.1 to 1.0 μg/mL or ZIKV E protein 0.2 to 2 μg/mL in 1x kinetic buffer; association 900 s, dissociation 1,200 s; Langmuir 1:1 model; average of two runs
Settings: both partners purified
quantity-kind: kon

INSERT INTO measurements (binder, observed_value) VALUES
  ('anti-ZIKV MAb 306-2 (antibody, V domains shown) VH: QSLEESGGDLVKPGASLTLTCTASGFDFSDRYYMCWVRQAPGKGLEWIGCIYVGSGDTYYASWAKGRFTISRTSSTTVTLQMTRLTAADTATYFCARHPGTYFTLWGPGTLVTVSS VL: DVVMTQTPSSVSAAVGGTVTINCQASQNIVNNLAWYQQRPGQPPKLLIYDTSTLASGVPSRFKGSGSGTEFTLTISDLECADAATYYCQTYYYYNKIINGFGGGTEVVVK', '117000 M⁻¹ s⁻¹'),
  ('anti-ZIKV MAb 78-2 (antibody, V domains shown) VH: QQQLVESGGGLVKPGASLTLNCKASGLDFSTNSYMCWVRQAPGKGLEWIACIYVGDSSEIYYASWAKGRFTISKTSSTTVTLQMTSLTAADTATYFCARDLPSFTAPYAGYLRLWGPGTLVTVSS VL: QPVLTQPPSLSASLGTTARLTCTLRTGYNVGDYPLLWLQRVPGRPPRYLLTYHTEEFKHQGSGVHSRFSGSKDASENAGVLSISGLQPEDEANYYCYTVHATESSLHYVFGGGTQLTVT', '192000 M⁻¹ s⁻¹'),
  ('anti-ZIKV MAb 11-3 (antibody, V domains shown, recombinant rabbit IgG) VH: QEQLVESGGGLVQPEGSLTITCTGSGFSFSSRFYMCWVRQAPGKGLEWIACIYGGSSGSTYYASWAKGRFTISKTSSTTVTLQISSLTAADTATYFCARGGSTAAAGFNLWGPGTLLTVSS VL: DVVMTQTPASVSATVGGTVTIKCQASEDIYNLLAWYQQKPGQPPKLLIYYASTLASGVPSRFKGSGSGTEFTLTISDLECADAATYYCQCNDYGGTYVPNAFGGGTEVVVK', '89800 M⁻¹ s⁻¹');
